Assign TGI to each entry below.
Test system: NCI-H522 lung
Test: NCI tumour cell line growth inhibition, 48 h

Which value of TGI has been reported for Cn1ccnc1C[N-]Cc1nccn1C.O=[N+]([O-])[O-].O=[N+]([O-])[O-].[Cu+2] in the records?
> 100 µM

Which value of TGI has been reported for C=C1c2nc3ccccc3n2C=C(c2ccc(OC)cc2)N1c1ccc(OCCN2CCOCC2)cc1 in the records?
3.63 µM

Which value of TGI has been reported for OC1c2ccccc2C(O)C2OC12 (stereo unspecified) in the records?
> 100 µM

Which value of TGI has been reported for CCOC(=O)/N=c1/nc(N(C)C)ss1 in the records?
> 100 µM

Which value of TGI has been reported for CCOP(=O)(OCC)C(Nc1ccc(F)cc1)c1ccccc1 (stereo unspecified) in the records?
> 100 µM

Which value of TGI has been reported for Cc1cc(O)c(C(c2ccncc2)c2c(O)cc(C)[nH]c2=O)c(=O)[nH]1 in the records?
> 100 µM

###

Test system: CAKI-1 renal
Assay: NCI tumour cell line growth inhibition, 48 h
Assign TGI to each entry below.

Which value of TGI has been reported for C1C[OH+]CC[OH+]CC[OH+]CC[OH+]CC[OH+]CC[OH+]1.[Cl-].[Nb+5] in the records?
> 100 µM

Which value of TGI has been reported for O=C(/C(=C/c1ccccc1)c1ccccc1)N1c2ccccc2CC1c1c[nH]c2ccccc12 (stereo unspecified) in the records?
> 100 µM

Which value of TGI has been reported for Cc1ccc2c(=O)c(-c3n[nH]c(=S)s3)c[nH]c2n1 in the records?
> 100 µM

Which value of TGI has been reported for CCN1CCNc2c3cc(OC)ccc3nc3c([N+](=O)[O-])ccc1c23 in the records?
> 10 µM

Which value of TGI has been reported for N#C/C(=C\c1ccccc1Br)C(=O)c1ccccc1 in the records?
> 100 µM

Which value of TGI has been reported for COCCNC1CCC2(SCCS2)c2[nH]c3ccccc3c21 (stereo unspecified) in the records?
> 100 µM

Which value of TGI has been reported for OC1c2ccccc2C(O)C2OC12 (stereo unspecified) in the records?
> 100 µM

Which value of TGI has been reported for Nc1c(-c2nc3ccccc3[nH]2)sc(=S)n1-c1ccc(Cl)cc1 in the records?
54.6 µM

Which value of TGI has been reported for NS(=O)(=O)c1ccc(NC(=O)COC(=O)c2cccc3c(=O)c4ccccc4[nH]c23)cc1 in the records?
> 100 µM

Which value of TGI has been reported for Cc1cc(C)c(N=Nc2c(O)c(S(=O)(=O)O)cc3cc(S(=O)(=O)O)ccc23)cc1C in the records?
> 100 µM

Which value of TGI has been reported for NCCCC[C@H](N)C(=O)Nc1ccc(-c2nc3ccccc3s2)cc1Cl in the records?
19.2 µM

Which value of TGI has been reported for COc1cc(-c2nn(-c3ccc(NC(=O)c4cc(Cl)cc(Cl)c4)cc3)cc2-c2ccncc2)ccc1Cl in the records?
> 100 µM

Which value of TGI has been reported for N=C(N)c1ccc(-c2ccc(-c3ccc(F)cc3)s2)s1 in the records?
3.08 µM

Which value of TGI has been reported for Cc1cc(S(=O)(=O)Nc2nc3cc(Cl)ccc3o2)c(SCc2ccccc2)cc1Cl in the records?
49 µM

Which value of TGI has been reported for CCCCOc1ccc(/C=N/Nc2cc(C)nc3ccc(Cl)cc23)cc1 in the records?
3.07 µM

Which value of TGI has been reported for CC[C@H](NC(=O)[C@H](CS(=O)(=O)CC1CC1)N[C@@H](c1ccc(F)cc1)C(F)(F)F)C(=O)C(=O)NC1CC1 in the records?
> 100 µM

Which value of TGI has been reported for CCN(CC)CCNc1ccc2ncn3c4cc(=O)ccc4c(O)c1c23 in the records?
13.4 µM

Which value of TGI has been reported for CC(=O)N1CCN(CCOc2ccc(C3CCN(C4=Nn5c(nnc5C(F)(F)F)CC4)CC3)cc2)CC1 in the records?
> 100 µM

Which value of TGI has been reported for O=C(Nc1cccc(C(F)(F)F)c1)c1cc(Br)cc(Br)c1O in the records?
6.6 µM

Which value of TGI has been reported for C=C1c2nc3ccccc3n2C=C(c2ccc(OC)cc2)N1c1ccc(OCCN2CCOCC2)cc1 in the records?
> 100 µM

Which value of TGI has been reported for C#CCOC(=O)C(N)CCSC (stereo unspecified) in the records?
> 100 µM

###

Tested on: CCRF-CEM leukemia
Experiment: NCI tumour cell line growth inhibition, 48 h
measuredProperty: TGI

Request body: readout TGI, system CCRF-CEM leukemia, query C#CCN(Cc1nc2cc(C(F)(F)F)ccc2nc1-c1ccccc1)c1ccc(F)c(F)c1 . Return the value.
> 100 µM

Request body: readout TGI, system CCRF-CEM leukemia, query CCc1nc(-n2c(-c3ccccc3)nc3ccccc3c2=O)nc(N)c1-c1ccc(Cl)cc1 . Return the value.
> 100 µM

Request body: readout TGI, system CCRF-CEM leukemia, query COc1ccccc1N=C1SCCN1C(=S)Nc1ccc(S(=O)(=O)/N=C/N(C)C)cc1 . Return the value.
> 100 µM

Request body: readout TGI, system CCRF-CEM leukemia, query Cc1ncc([N+](=O)[O-])n1CCNC(=O)CCCCCn1ccnc1[N+](=O)[O-] . Return the value.
> 100 µM

Request body: readout TGI, system CCRF-CEM leukemia, query CCOC(=S)SCN1C(=O)c2ccccc2S1(=O)=O . Return the value.
39.4 µM

Request body: readout TGI, system CCRF-CEM leukemia, query O=[N+]([O-])c1ccc2ncccc2c1CCc1c([N+](=O)[O-])ccc2ncccc12 . Return the value.
> 100 µM

Request body: readout TGI, system CCRF-CEM leukemia, query CCOP(=O)(OCC)C(C)(C)OC(=O)NC#N . Return the value.
> 100 µM

Request body: readout TGI, system CCRF-CEM leukemia, query Cn1cc(NC(=O)c2cc(NC(=O)CCCCCCC(=O)Nc3cc(C(=O)Nc4cc(C(=O)NCCC(=N)N)n(C)c4)n(C)c3)cn2C)cc1C(=O)NCCC(=N)N . Return the value.
> 100 µM

Request body: readout TGI, system CCRF-CEM leukemia, query CO[C@H](C(=O)O)[C@@H]1Cc2cc3cc(OC4CC(OC5CC(O)C(O)C(C)O5)C(O)C(C)O4)c(C)c(O)c3c(O)c2C(=O)[C@H]1OC1CC(OC2CC(OC3CC(C)(O)C(O)C(C)O3)C(O)C(C)O2)C(O)C(C)O1 (stereo partly drawn) . Return the value.
> 32.5 µM

Request body: readout TGI, system CCRF-CEM leukemia, query CC[C@H](C)C1=C(OC(C)=O)[N@+]2([O-])Oc3ccc(-c4c(OC(C)=O)c(OC(C)=O)c(-c5ccc(OC(C)=O)cc5)c(OC(C)=O)c4OC(C)=O)cc3O[C@]2([C@@H](C)CC)C(=O)N1OC(C)=O . Return the value.
11.3 µM

Request body: readout TGI, system CCRF-CEM leukemia, query CC1=C(C(=O)Nc2ccccc2)C(c2ccc(C(C)C)cc2)C(C(=O)Nc2ccccc2)=C(C)N1 . Return the value.
75.2 µM

Request body: readout TGI, system CCRF-CEM leukemia, query NS(=O)(=O)c1ccc(NC(=O)COC(=O)c2cccc3c(=O)c4ccccc4[nH]c23)cc1 . Return the value.
> 89.5 µM

Request body: readout TGI, system CCRF-CEM leukemia, query CCCCCCCCCCCCCCCCP(=O)([O-])OCC[N+](C)(C)C . Return the value.
24.7 µM

Request body: readout TGI, system CCRF-CEM leukemia, query COc1ccccc1NCC(=O)Nn1c(C)nc2ccc(S(=O)(=O)Nc3ccccc3OC)cc2c1=O . Return the value.
> 100 µM

Request body: readout TGI, system CCRF-CEM leukemia, query OC(c1ccccc1)(c1cccnc1)C(O)(c1ccccc1)c1cccnc1 (stereo not drawn) . Return the value.
> 100 µM

Request body: readout TGI, system CCRF-CEM leukemia, query COC(=O)C(Cc1nc2ccccc2[nH]c1=O)C(=O)C(=O)Nc1cc(C(F)(F)F)ccc1Cl (stereo not drawn) . Return the value.
48.2 µM

Request body: readout TGI, system CCRF-CEM leukemia, query Cn1ncc(-c2ccc3c(=O)[nH]nc(CN)c3c2)c1-c1c(F)cc2ccccc2c1C#N . Return the value.
57.3 µM

Request body: readout TGI, system CCRF-CEM leukemia, query CCN1CCNc2c3cc(OC)ccc3nc3c([N+](=O)[O-])ccc1c23 . Return the value.
3.22 µM

Request body: readout TGI, system CCRF-CEM leukemia, query Cc1cc(O)c(C(c2ccncc2)c2c(O)cc(C)[nH]c2=O)c(=O)[nH]1 . Return the value.
> 100 µM

Request body: readout TGI, system CCRF-CEM leukemia, query O=C(/C(=C/c1ccccc1)c1ccccc1)N1c2ccccc2CC1c1c[nH]c2ccccc12 (stereo not drawn) . Return the value.
> 100 µM

Request body: readout TGI, system CCRF-CEM leukemia, query O=C1OC(=O)C2C1C(c1ccccc1[N+](=O)[O-])C=C(c1ccco1)N2c1ccncc1 (stereo not drawn) . Return the value.
17 µM

Request body: readout TGI, system CCRF-CEM leukemia, query C=CC1(c2ccc(OC)cc2)OCCCO1 . Return the value.
> 100 µM

Request body: readout TGI, system CCRF-CEM leukemia, query N=C(N)SCCc1ccccn1 . Return the value.
> 100 µM
